- SUBJECT OF TEST: ERβ LBD (amino acids 257–502) (Homo sapiens, UniProt Q92731)
- Sequence (Q92731 257-502): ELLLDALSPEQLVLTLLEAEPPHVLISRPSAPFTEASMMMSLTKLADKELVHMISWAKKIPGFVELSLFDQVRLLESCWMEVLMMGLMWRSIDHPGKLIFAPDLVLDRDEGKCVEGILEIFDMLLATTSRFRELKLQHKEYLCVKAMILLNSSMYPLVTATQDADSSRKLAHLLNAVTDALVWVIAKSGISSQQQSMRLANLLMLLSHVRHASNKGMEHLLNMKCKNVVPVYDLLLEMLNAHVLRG
- TEST: Differential HDX mass spectrometry of ERβLBD with and without ligand
- Type: binding
- ASSAY SETUP: ERβLBD:ligand 1:10; average of 1, 30, 60, 900, 4200 sec; negative = protection
MEASURED ENDPOINT: Average difference in deuterium levels, LOOP 282-294 (%)
Express your answer in %, writing the number without its unit.

INSERT INTO measurements (compound, unit, value_observed) VALUES
  ('O=C(c1ccc(O)cc1)c1c(-c2ccc(O)cc2)sc2cc(O)ccc12', '%', '−7');

// Average difference in deuterium levels, LOOP 282-294 value for CC/C(=C(\c1ccc(O)cc1)c1ccc(OCCN(C)C)cc1)c1ccccc1 [4-hydroxy tamoxifen, 4-hydroxytamoxifen] : −10

// Average difference in deuterium levels, LOOP 282-294 value for C[C@]12CC[C@@H]3c4ccc(O)cc4C[C@@H](CCCCCCCCC[S+]([O-])CCCC(F)(F)C(F)(F)F)[C@H]3[C@@H]1CC[C@@H]2O (some centres unmarked) : −9

// Average difference in deuterium levels, LOOP 282-294 value for C[C@]12CC[C@@H]3c4ccc(O)cc4CC[C@H]3[C@@H]1CC[C@@H]2O : −7

// Average difference in deuterium levels, LOOP 282-294 value for O=C(c1ccc(OCCN2CCCCC2)cc1)c1c(-c2ccc(O)cc2)sc2cc(O)ccc12 : −6

// Average difference in deuterium levels, LOOP 282-294 value for O=C(c1ccc(OCCN2CCCC2)cc1)c1c(-c2ccc(O)cc2)sc2cc(O)ccc12 : −7

// Average difference in deuterium levels, LOOP 282-294 value for Oc1ccc2c(c1)CC[C@H](c1ccccc1)[C@@H]2c1ccc(OCCN2CCCC2)cc1 : −9

// Average difference in deuterium levels, LOOP 282-294 value for CC/C(=C(/CC)c1ccc(O)cc1)c1ccc(O)cc1 : −8
